test system: PPARa:RXRa (NR concentration 270 nM, RXRa partner concentration 90 nM); assay: PBM binding z-score (relative to random genomic background probes); higher = stronger binding; sequences stand for … in GC…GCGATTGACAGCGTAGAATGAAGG
Classify by measured PBM binding z-score: label 1 if it is equal to or exceeds 5, label 0 if it is smaller.

[[record]]
seq_string = "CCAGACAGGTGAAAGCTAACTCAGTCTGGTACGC"
group_label = "label 0"

[[record]]
seq_string = "CCTACTGGGCCATCAGCTCATTGATATCAACGTT"
group_label = "label 0"

[[record]]
seq_string = "ATTACAGGGTCATCGTAGGCCAGAGTACGCACAG"
group_label = "label 1"


// query Hi, just wondering whether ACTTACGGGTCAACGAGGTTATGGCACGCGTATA shows PBM binding z-score of 5 or higher.
// result label 1

// query Again, but for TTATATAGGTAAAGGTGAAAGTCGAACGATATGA
// result label 0

// query Also, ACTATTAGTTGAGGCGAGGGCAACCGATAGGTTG please.
// result label 0

// query Cool, now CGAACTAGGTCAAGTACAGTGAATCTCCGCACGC
// result label 0

* * *

test system: PPARg:RXRa DBDmut IVT, anti-RXR (DBD mutation: RXRa K156A/R161A, NR concentration 270 nM, RXRa partner concentration 90 nM); assay: PBM binding z-score (relative to random genomic background probes); higher = stronger binding; sequences stand for … in GC…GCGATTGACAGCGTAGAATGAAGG
PBM binding z-score vs 2: at or above is satisfied, below is not satisfied.

[[record]]
seq_string = "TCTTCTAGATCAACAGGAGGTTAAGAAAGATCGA"
group_label = "not satisfied"

[[record]]
seq_string = "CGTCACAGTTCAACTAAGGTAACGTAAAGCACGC"
group_label = "not satisfied"


// query Say whether TCTGCTAGGTCAGTTGTTCAGCTAACGAGCTGCC shows PBM binding z-score of 2 or more.
// result satisfied

// query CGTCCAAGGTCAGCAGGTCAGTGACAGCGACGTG ?
// result satisfied

// query Entry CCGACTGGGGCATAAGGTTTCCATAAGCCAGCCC please
// result satisfied

* * *

tested on: RARg homodimer (NR concentration 270 nM); test: PBM binding z-score (relative to random genomic background probes); higher = stronger binding; sequences stand for … in GC…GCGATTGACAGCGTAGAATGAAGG
Measured PBM binding z-score values are reported for all entries that follow.
Please reply with the value in numeric form only.

The cases that follow already have their PBM binding z-score on record.
[[record]]
seq_string = "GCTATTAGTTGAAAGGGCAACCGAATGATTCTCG"
observed_result = 1.37

[[record]]
seq_string = "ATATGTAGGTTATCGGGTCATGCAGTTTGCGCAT"
observed_result = 2.66

[[record]]
seq_string = "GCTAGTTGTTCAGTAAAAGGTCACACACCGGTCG"
observed_result = 4.28

[[record]]
seq_string = "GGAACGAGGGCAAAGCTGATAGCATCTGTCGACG"
observed_result = 1.5

[[record]]
seq_string = "CCGACTGGGGCAAGGTGACCATAACGCACAGCCA"
observed_result = 0.934


// query Quick check: PBM binding z-score of TGTCAAAGTTCAAAGGTAACGTTAGTATCCACAC ?
// result 6.13

// query Okay, and AGAACGAGGGCAAAGAGTTGATAGCACGGGTGGC ?
// result 1.69

// query Now the same for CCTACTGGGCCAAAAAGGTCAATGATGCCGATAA
// result 4.09

// query Repeat for the following sequence: ACTAATAGTTGACTTAGGGCAACCGATACGACGC
// result 0.996

// query Again, but for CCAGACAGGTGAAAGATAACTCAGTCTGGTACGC
// result 0.6

// query Next up: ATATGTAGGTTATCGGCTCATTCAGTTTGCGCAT
// result 0.752

// query Now try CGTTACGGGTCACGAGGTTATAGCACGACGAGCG .
// result 5.62

// query One more sequence: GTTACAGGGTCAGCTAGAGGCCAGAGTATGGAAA
// result 5.21

// query Thanks! And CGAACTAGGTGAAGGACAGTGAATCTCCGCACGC ?
// result 0.23

// query Similarly, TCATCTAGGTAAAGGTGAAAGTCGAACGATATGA ?
// result 1.28

// query Entry CCTAGTTGGTCAGGAGGTCGCACACCGGATATGA please
// result 1.98

// query Param item: CCTCGGAGGACTGAAGGTCAGAGCTGTCCGCTTT
// result 1.87

// query Input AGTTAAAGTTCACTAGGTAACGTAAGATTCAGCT
// result 4.95

// query Try this sequence too: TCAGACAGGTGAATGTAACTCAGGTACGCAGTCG
// result 0.476

// query What do you have for CCTCGGAGGACAGAAGGTCAGGGCTGTCCGCTTT ?
// result 3.54

// query Same again, this time with TCTGCTAGGTCAGTTCGTCAGCTAACGAGCTGCC
// result 3

* * *

system: LXRb homodimer (NR concentration 270 nM); assay: PBM binding z-score (relative to random genomic background probes); higher = stronger binding; sequences stand for … in GC…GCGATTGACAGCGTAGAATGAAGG
Criterion: PBM binding z-score meeting or surpassing -0.3. Met: rule met. Not met: rule not met.

Solved entries:
[[record]]
seq_string = "CCTTACGGGTCGCGAGGTTATAGCACGACGAGCG"
group_label = "rule not met"

[[record]]
seq_string = "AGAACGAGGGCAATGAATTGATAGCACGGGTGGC"
group_label = "rule not met"


// query Hi team, for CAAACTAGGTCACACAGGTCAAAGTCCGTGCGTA , is the recorded PBM binding z-score at or above -0.3?
// result rule met

// query Follow-up entry: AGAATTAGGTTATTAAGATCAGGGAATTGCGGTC
// result rule met

// query Then ATCGAAAAGTCGACGAGGTGAGTATACACCGTTT ?
// result rule met

// query Same again, this time with TCTAGTTGTTCACGGAGGTCACACACGACGGGTA
// result rule met

// query Also ATCTCTAGGTAAAGATAGTTCAGTCAATGCAAAT ?
// result rule met

// query Same thing, different sequence: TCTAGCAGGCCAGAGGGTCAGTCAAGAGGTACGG
// result rule not met

// query Could you do the same for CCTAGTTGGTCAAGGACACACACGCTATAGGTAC , please?
// result rule met

// query // same read-out, input: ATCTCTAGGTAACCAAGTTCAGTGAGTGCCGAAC
// result rule met

// query Thanks! And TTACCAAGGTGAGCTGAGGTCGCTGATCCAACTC ?
// result rule not met

// query Consider next the sequence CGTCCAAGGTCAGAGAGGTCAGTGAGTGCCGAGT in the same way.
// result rule met

// query And for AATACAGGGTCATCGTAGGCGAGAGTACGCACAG ?
// result rule met

// query Would you mind doing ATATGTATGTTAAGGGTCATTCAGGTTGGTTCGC as well?
// result rule met

// query Moving on to the next sequence: CTCGAAAGGACGTGCTCAGGTGAGTATACCAAAC
// result rule met

// query Same question, TCGAGTAGGTTAGTCGGGGCATTAAGCCAACATA this time
// result rule not met

// query Entry to check: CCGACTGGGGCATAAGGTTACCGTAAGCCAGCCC
// result rule not met

// query Another: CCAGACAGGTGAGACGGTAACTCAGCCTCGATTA
// result rule not met

* * *

Listing: PBM binding z-score of selected sequences
test system: PPARg:RXRa IVT, anti-PPARg (NR concentration 270 nM, RXRa partner concentration 90 nM); experiment: PBM binding z-score (relative to random genomic background probes); higher = stronger binding; sequences stand for … in GC…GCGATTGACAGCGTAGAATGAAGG
Enter a number only.

Some sequences with known PBM binding z-score results, for comparison:
[[record]]
seq_string = "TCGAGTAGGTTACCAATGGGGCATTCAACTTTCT"
observed_result = 3.11

[[record]]
seq_string = "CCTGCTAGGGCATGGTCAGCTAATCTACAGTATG"
observed_result = 0.942

[[record]]
seq_string = "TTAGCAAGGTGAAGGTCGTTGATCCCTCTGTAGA"
observed_result = 2.79


We next turn to a different sequence, shown below.
// query Recorded PBM binding z-score for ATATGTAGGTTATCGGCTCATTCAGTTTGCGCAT , please?
// result 6.58

* * *

test system: RXRa homodimer (NR concentration 180 nM); assay: PBM binding z-score (relative to random genomic background probes); higher = stronger binding; sequences stand for … in GC…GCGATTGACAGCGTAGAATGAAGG
Recorded PBM binding z-score for the following sequences
Hey, just send me the number, nothing else.

Worked examples, 2 sequences total:
[[record]]
seq_string = "CCTCGGAGGACAGAAGGTCAGACCTGTCCGCTTT"
observed_result = 2.08

[[record]]
seq_string = "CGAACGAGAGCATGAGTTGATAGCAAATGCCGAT"
observed_result = -0.065


// query Give the measured PBM binding z-score of CAAACTAGGTCATCGGAAGGTCAAAGTCCGCATG .
// result 5.58
